- EXPERIMENT: in vitro
- Format: cell-based
- MEASUREMENT_PARAMETERS: human
READOUT: CC50 at 72 h

• COC(=O)CCc1ccc(-c2cc3ccc(S(=O)(=O)N[C@H]4CC[C@H](C(=O)N5CCOC[C@@H]5C5CC5)CC4)cc3n2C)cc1 [Example 473] = > 33 µM
• Cn1c(-c2ccc(CCC(=O)O)cc2)c(Cl)c2ccc(S(=O)(=O)N[C@H]3CC[C@H](C(=O)N4CCOC[C@@H]4C4CC4)CC3)cc21 [Example 28] = > 33 µM
• CCOc1ccc2cc(S(=O)(=O)N[C@H]3CC[C@H](C(=O)N[C@H](COC(=O)[C@@H](NC)C(C)C)c4ccccc4)CC3)ccc2n1 [Example 272] = > 16.7 µM
• CC(C)[C@H]1COCCN1C(=O)[C@H]1CC[C@H](NS(=O)(=O)c2ccc3cc(-c4ccc(CCC(=O)O)cc4)n(C)c3c2)CC1 [Example 29] = > 33 µM
• CC(C)[C@H]1COCCN1C(=O)[C@H]1CC[C@H](NS(=O)(=O)c2ccc3c(Cl)c(-c4ccc(CCC(=O)O)cc4)n(C)c3c2)CC1 [Example 25] = > 33 µM
• Cn1c(C2CC2)cc2ccc(S(=O)(=O)N[C@H]3CC[C@H](C(=O)N4CCOC[C@@H]4C4CC4)CC3)cc21 [Example 458] = > 33 µM
• Cn1c(-c2ccccc2)cc2ccc(S(=O)(=O)N[C@H]3CC[C@H](C(=O)N4CCOC[C@@H]4C4CC4)CC3)cc21 [Example 479] = > 33 µM
• Cn1c(C2CC2)cc2ccc(S(=O)(=O)N[C@H]3CC[C@H](C(=O)NC(C4CC4)C4CC4)CC3)cc21 [Example 459] = 26 µM
• COCCc1ccc(-c2[nH]c3cc(S(=O)(=O)N[C@H]4CC[C@H](C(=O)N5CCOC[C@@H]5C)CC4)ccc3c2Cl)cc1 [Example 31] = 24 µM
• Cn1c(-c2ccccc2)cc2ccc(S(=O)(=O)N[C@H]3CC[C@H](C(=O)N4CCN(c5ncccn5)CC4)CC3)cc21 [Example 431] = > 33 µM
• C[C@@H](NC(=O)[C@H]1CC[C@H](NS(=O)(=O)c2cnc3c(c2)N(C(=O)OCCOCc2ccccc2)CCN3)CC1)c1ccc(F)cc1 [Example 208] = > 16.7 µM
• COCCc1ccc(-c2cc3ccc(S(=O)(=O)N[C@H]4CC[C@H](C(=O)N5CCOC[C@@H]5C)CC4)cc3[nH]2)cc1 [Example 30] = > 33 µM
• O=C([C@H]1CC[C@H](NS(=O)(=O)c2ccc3c(Cl)c(-c4ccccc4)[nH]c3c2)CC1)N1CCOC[C@@H]1C1CC1 [Example 474] = > 67 µM
• Cn1c(-c2ccccc2)cc2ccc(S(=O)(=O)N[C@H]3CC[C@H](C(=O)N4CC5(CN(C(=O)OC(C)(C)C)C5)C4)CC3)cc21 [Example 483] = 16 µM
• C[C@@H]1CN(C(=O)[C@H]2CC[C@H](NS(=O)(=O)c3ccc4c(Cl)c(-c5ccccc5)[nH]c4c3)CC2)C[C@H](C)O1 [Example 477] = 12 µM

* * *

- TEST_SYSTEM: human acetyl-CoA carboxylase 2 (ACC2) (Homo sapiens, UniProt O00763)
- Construct: The cDNA encoding amino acids 144 to 2458 of human acetyl-CoA carboxylase 2; made in house; host or cells: Sf9 insect cells (baculovirus, pFastBac1)
- Sequence (O00763 144-2458): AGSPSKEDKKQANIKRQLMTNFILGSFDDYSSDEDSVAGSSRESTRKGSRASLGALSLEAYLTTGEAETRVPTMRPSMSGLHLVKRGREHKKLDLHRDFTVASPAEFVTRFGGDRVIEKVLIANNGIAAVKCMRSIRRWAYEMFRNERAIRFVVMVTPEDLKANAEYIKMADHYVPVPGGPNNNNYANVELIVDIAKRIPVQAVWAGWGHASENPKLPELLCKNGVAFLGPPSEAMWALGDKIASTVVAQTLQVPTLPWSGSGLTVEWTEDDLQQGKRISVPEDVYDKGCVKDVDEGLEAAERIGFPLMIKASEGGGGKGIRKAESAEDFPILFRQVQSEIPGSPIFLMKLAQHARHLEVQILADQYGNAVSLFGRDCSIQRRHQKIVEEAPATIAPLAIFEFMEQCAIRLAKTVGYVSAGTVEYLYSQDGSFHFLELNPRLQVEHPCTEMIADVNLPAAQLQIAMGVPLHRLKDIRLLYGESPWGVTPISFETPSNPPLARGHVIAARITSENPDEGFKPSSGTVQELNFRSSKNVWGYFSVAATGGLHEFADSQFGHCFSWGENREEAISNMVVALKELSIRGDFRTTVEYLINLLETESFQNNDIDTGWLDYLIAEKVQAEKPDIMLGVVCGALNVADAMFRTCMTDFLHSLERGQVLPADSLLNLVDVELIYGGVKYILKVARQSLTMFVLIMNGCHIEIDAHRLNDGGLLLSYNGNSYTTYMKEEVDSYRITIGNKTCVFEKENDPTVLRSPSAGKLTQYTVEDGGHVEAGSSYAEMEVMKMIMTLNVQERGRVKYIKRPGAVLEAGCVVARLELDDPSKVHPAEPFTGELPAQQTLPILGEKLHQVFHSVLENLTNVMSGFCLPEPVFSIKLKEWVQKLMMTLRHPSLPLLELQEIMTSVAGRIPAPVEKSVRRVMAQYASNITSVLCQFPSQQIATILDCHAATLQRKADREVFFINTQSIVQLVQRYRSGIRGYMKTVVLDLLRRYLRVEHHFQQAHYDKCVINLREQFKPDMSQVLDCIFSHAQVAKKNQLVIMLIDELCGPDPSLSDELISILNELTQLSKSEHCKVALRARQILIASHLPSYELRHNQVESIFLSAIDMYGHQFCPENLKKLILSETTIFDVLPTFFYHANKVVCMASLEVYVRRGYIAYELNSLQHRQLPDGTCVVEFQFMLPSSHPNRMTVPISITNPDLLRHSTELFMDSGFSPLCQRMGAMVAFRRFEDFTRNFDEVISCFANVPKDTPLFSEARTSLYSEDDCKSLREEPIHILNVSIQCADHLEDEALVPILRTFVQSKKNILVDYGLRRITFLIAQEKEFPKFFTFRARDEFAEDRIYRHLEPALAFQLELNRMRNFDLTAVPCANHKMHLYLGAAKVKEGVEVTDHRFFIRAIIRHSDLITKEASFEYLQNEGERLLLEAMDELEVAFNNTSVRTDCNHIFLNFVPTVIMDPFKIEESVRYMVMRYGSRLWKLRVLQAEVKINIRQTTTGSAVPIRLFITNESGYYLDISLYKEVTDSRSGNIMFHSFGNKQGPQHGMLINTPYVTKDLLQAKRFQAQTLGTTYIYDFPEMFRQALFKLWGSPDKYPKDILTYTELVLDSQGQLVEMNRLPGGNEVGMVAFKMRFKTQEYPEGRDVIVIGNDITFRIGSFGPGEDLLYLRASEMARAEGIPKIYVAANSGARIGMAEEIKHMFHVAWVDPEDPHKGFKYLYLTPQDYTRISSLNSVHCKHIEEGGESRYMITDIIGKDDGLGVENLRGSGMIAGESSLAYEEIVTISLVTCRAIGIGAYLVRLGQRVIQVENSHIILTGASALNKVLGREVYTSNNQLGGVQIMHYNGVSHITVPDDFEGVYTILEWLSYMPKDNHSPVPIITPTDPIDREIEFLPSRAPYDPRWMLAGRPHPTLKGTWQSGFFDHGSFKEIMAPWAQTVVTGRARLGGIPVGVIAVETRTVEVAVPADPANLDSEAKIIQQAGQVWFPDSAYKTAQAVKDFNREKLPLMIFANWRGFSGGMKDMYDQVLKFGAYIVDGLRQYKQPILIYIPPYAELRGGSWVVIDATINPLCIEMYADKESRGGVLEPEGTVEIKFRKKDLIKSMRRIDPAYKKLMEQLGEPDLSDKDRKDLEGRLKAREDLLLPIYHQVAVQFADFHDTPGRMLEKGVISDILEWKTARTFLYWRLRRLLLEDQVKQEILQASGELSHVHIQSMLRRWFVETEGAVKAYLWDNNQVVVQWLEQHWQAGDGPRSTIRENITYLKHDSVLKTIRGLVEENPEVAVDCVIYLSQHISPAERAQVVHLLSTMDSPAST
- EXPERIMENT: Acetyl-CoA carboxylase enzyme assay (malonyl-CoA formation by LC/MS/MS)
- Type: biochemical
- MEASUREMENT_PARAMETERS: recombinant human ACC2 (aa 144-2458); read-out: IC50 ACC2
The molecules listed here are annotated with their log10(IC50).
READOUT: log10(IC50) (log10 of the value in nM)

* CC(C)OC(=O)c1ccc(NS(=O)(=O)c2ccc3nc(-c4cncs4)[nH]c3c2)cc1 | 3.26
* CCOC(=O)C1CCCN(C(=O)[C@H]2CC[C@H](NS(=O)(=O)c3ccc4cc(-c5ccc(F)cc5)n(C)c4c3)CC2)C1 (some centres unmarked) | 2.41
* C[C@@H](NC(=O)[C@H]1CC[C@H](NS(=O)(=O)c2ccc3nc(-c4ccncc4)ccc3c2)CC1)c1ccc(F)cc1 | 1.40
* Cn1c(C2CC2)c(C#N)c2ccc(S(=O)(=O)N[C@H]3CC[C@H](C(=O)N4CCC[C@@H]4C(F)(F)F)CC3)cc21 | 1.18
* CC(=O)c1ccc(-c2nc3ccc(S(=O)(=O)Nc4ccc(C(=O)OC(C)C)cc4)cc3[nH]2)cc1 | 3.00
* C[C@@H](NC(=O)[C@H]1CC[C@H](NS(=O)(=O)c2ccc3[nH]c(-c4ccccc4)cc3c2)CC1)c1ccccc1 | 1.81
* CC(NC(=O)[C@H]1CC[C@H](NS(=O)(=O)c2cnc3ccccc3c2)CC1)c1ccc(F)c(F)c1 (some centres unmarked) | 2.31
* O=C([C@H]1CC[C@H](NS(=O)(=O)c2ccc3[nH]c(-c4ccccc4)nc3c2)CC1)N1CCN(CC2CCCCC2)CC1 | 3.31
* CC(C)c1nnc(-c2ccc(NS(=O)(=O)c3ccc4[nH]c(Nc5ccc(N6CCOCC6)cc5)nc4c3)cc2)o1 | 2.51
* C[C@@H](NC(=O)[C@H]1CC[C@H](NS(=O)(=O)c2ccc3cc(C4CCCC4)[nH]c3c2)CC1)c1ccc(F)cc1 | 2.26
* CC(NC(=O)[C@H]1CC[C@H](NS(=O)(=O)c2ccc3cc(Cl)ccc3c2)CC1)c1cccnc1 (some centres unmarked) | 2.15
* COc1ccccc1-c1cc2ccc(S(=O)(=O)N[C@H]3CC[C@H](C(=O)N[C@H](C)c4ccc(F)cc4)CC3)cc2[nH]1 | 1.58

* * *

- TEST_SYSTEM: human acetyl-CoA carboxylase 2 (ACC2) (Homo sapiens)
- Construct: The cDNA encoding amino acids 144 to 2458 of human acetyl-CoA carboxylase 2; made in house; host or cells: Sf9 insect cells (baculovirus, pFastBac1)
- EXPERIMENT: Acetyl-CoA carboxylase enzyme assay (malonyl-CoA formation by LC/MS/MS)
- Type: biochemical
- MEASUREMENT_PARAMETERS: recombinant human ACC2 (aa 144-2458); read-out: IC50 ACC2
- Description: The cDNA encoding amino acids 144 to 2458 of human acetyl-CoA carboxylase 2 (ACC2, GenBank Accession #NM_001093) was cloned into the SalI and NotI sites of pFastBac1 (Invitrogen; Carlsbad, Calif.). The resulting plasmid was used to generate a recombinant ACC2 baculovirus that was amplified and titered according to the protocols in the Bac-to-Bac baculovirus expression system manual (Invitrogen). […]
READOUT: IC50 (µM)

- COCCOc1ccc(-c2cc3ccc(S(=O)(=O)N[C@H]4CC[C@H](C(=O)N[C@H](C)c5ccc(F)cc5)CC4)cc3n2C)cc1: 0.01
- COCCOc1ccc2cc(S(=O)(=O)N[C@H]3CC[C@H](C(=O)N[C@H](C)c4ccc(F)cc4)CC3)ccc2n1: 0.07
- CCOc1ccc2cc(S(=O)(=O)NC3CCC(C(=O)NC(c4ccccc4)C(C)OC(=O)C(N)C(C)C)CC3)ccc2n1 (stereo not drawn): 0.195

* * *

- TEST_SYSTEM: human acetyl-CoA carboxylase 2 (ACC2) (Homo sapiens)
- Construct: The cDNA encoding amino acids 144 to 2458 of human acetyl-CoA carboxylase 2; made in house; host or cells: Sf9 insect cells (baculovirus, pFastBac1)
- EXPERIMENT: Acetyl-CoA carboxylase enzyme assay (malonyl-CoA formation by LC/MS/MS)
- Format: biochemical
- MEASUREMENT_PARAMETERS: recombinant human ACC2 (aa 144-2458); read-out: IC50 ACC2
pIC50: −log10 of the molar value.
Some molecules, each annotated with its measured pIC50.
READOUT: pIC50

• O=C([C@H]1CC[C@H](NS(=O)(=O)c2ccc3c(c2)NC(C(F)(F)F)CC3)CC1)N1CCNCC1c1ccccc1 (stereo partly shown) = 6.61
• CC(C)c1nnc(-c2ccc(NS(=O)(=O)c3ccc4[nH]c(Nc5ccc(N6CCN(C)CC6)cc5)nc4c3)cc2)o1 = 6.86
• COCc1nnc(-c2ccc(NS(=O)(=O)c3ccc4nc(-c5ccccc5)[nH]c4c3)cc2)o1 = 5.03
• [2H]C([2H])([2H])N1C(=O)COc2ccc(S(=O)(=O)N[C@H]3CC[C@H](C(=O)N[C@H](C)c4ccc(F)cc4)CC3)cc21 = 6.76
• CC(C)OC(=O)c1ccc(NS(=O)(=O)c2ccc3[nH]c(Nc4ccc5nsnc5c4)nc3c2)cc1 = 6.77
• O=C(NC1Cc2ccccc2C1)[C@H]1CC[C@H](NS(=O)(=O)c2ccc3[nH]c(-c4ccccc4)nc3c2)CC1 = 6.90
• C[C@@H](NC(=O)[C@H]1CC[C@H](NS(=O)(=O)c2ccc3[nH]c(-c4ccccc4)nc3c2)CC1)C1CCCCC1 = 7.77
• C[C@@H](NC(=O)[C@H]1CC[C@H](NS(=O)(=O)c2ccc3c(c2)NCCO3)CC1)c1ccc(F)cc1 = 6.98
• COCCNC(=O)c1ccc2cc(S(=O)(=O)N[C@H]3CC[C@H](C(=O)N[C@H](C)c4ccc(F)cc4)CC3)ccc2n1 = 6.45
• Cn1c(-c2ccc(CCC(=O)O)cc2)c(C#N)c2ccc(S(=O)(=O)N[C@H]3CC[C@H](C(=O)N4CCC[C@H]4C(C)(C)C)CC3)cc21 = 7.12
• CC(C)c1nnc([C@H]2CC[C@H](NS(=O)(=O)c3ccc4[nH]c(-c5ccc(N6CCOCC6)cc5)nc4c3)CC2)o1 = 6.29
